This listing pairs compounds with measured IC50.
system_tested: Chk1 (Homo sapiens)
Construct: purchased Upstate Biotechnology
assay_protocol: Chk1 kinase assay: incorporation of γ-33P ATP into immobilized myelin basic protein
Format: biochemical
condition_notes: Table 11, Chk1 only; class symbols A-D; read-out: Chk1 IC50

Nc1ncc(-c2cccc(CNS(=O)(=O)c3ccc(Cl)cc3)c2)nc1C(=O)N[C@H]1CCCNC1 = < 50 nM
Nc1ncc(-c2cccc(C(=O)NCc3cccc(F)c3F)c2)nc1C(=O)N[C@H]1CCCNC1 = < 50 nM
Nc1ncc(-c2cccc(CNS(=O)(=O)c3ccccc3OC(F)(F)F)c2)nc1C(=O)N[C@H]1CCCNC1 = 50 to 1000 nM
Nc1ncc(-c2cccc(NC(=O)c3ccc(Br)cc3F)c2)nc1C(=O)N[C@H]1CCCNC1 = < 50 nM
Nc1ncc(-c2cccc(C(=O)N[C@H]3CCc4ccccc43)c2)nc1-c1ncn(-c2ccncc2)n1 = 1000 to 10000 nM
Nc1ncc(-c2cccc(C(=O)N[C@H]3CCc4ccccc43)c2)nc1C(=O)N[C@H]1CCCCNC1 = < 50 nM
Nc1ncc(-c2cccc(CN[C@H]3CCc4ccccc43)c2)nc1C(=O)NC1CCCCNC1 (stereo partly drawn) = < 50 nM
Nc1ncc(-c2cccc(C(=O)NCc3ccc(Cl)c(Cl)c3)c2)nc1C(=O)N[C@H]1CCNC1 = < 50 nM

If you can, please state the reported IC50 value of COc1ccc(CC(=O)Nc2cccc(-c3cnc(N)c(C(=O)N[C@H]4CCCNC4)n3)c2)cc1 .
< 50 nM

* * *

Measured IC50, listed per entry.
system_tested: Chk1 (Homo sapiens, UniProt O14757)
Construct: purchased Upstate Biotechnology
assay_protocol: Chk1 kinase assay: incorporation of γ-33P ATP into immobilized myelin basic protein
Assay type: biochemical
condition_notes: read-out: Chk1 IC50

CNC(=O)c1nc(-c2cccc(C(=O)NCc3cccc(N)c3)c2)cnc1N = 0.05 to 1 µM

Entry CNC(=O)c1nc(-c2cccc(C(=O)NCc3ccc4c(c3)CCO4)c2)cnc1N has what IC50?
0.05 to 1 µM

Need IC50, item CNC(=O)c1nc(-c2cccc(C(=O)NCc3ccc(C)c(F)c3F)c2)cnc1N
0.05 to 1 µM

Give its IC50 value. Item: CNC(=O)c1nc(-c2cccc(C(=O)NCc3ccc(C)c(F)c3)c2)cnc1N
0.05 to 1 µM

Record request: IC50 value, item CNC(=O)c1nc(-c2cccc(C(=O)NCc3ccc(C(F)(F)F)nc3)c2)cnc1N
0.05 to 1 µM

# input molecule: CNC(=O)c1nc(-c2cccc(C(=O)NCc3ccc(-c4cccs4)cc3)c2)cnc1N ; wanted: its IC50
< 0.05 µM

* * *

The reader will find reported pIC50 values listed item by item below.
system_tested: Chk1 (Homo sapiens, UniProt O14757)
Construct: purchased Upstate Biotechnology
Sequence (O14757 1-476): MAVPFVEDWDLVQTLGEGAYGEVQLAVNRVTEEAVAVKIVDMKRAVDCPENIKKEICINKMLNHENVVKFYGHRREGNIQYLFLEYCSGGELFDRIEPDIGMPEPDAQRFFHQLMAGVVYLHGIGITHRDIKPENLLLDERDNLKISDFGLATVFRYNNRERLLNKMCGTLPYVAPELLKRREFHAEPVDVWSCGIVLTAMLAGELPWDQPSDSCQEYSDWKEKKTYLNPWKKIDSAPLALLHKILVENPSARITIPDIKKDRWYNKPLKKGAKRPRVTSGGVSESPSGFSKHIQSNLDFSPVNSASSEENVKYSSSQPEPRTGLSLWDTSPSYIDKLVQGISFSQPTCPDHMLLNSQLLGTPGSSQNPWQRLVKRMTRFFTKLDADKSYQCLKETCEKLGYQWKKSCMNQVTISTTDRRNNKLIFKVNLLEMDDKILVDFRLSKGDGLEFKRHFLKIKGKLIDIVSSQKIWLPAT
assay_protocol: Chk1 kinase assay: incorporation of γ-33P ATP into immobilized myelin basic protein
Assay type: biochemical
condition_notes: Table 11; Chk1 only; read-out: Chk1 IC50
pIC50: −log10 of the molar value.

Study these solved cases before continuing.
Cc1noc(C)c1NC(=O)NCCCNC(=O)c1nc(-c2cccc(C(=O)NCc3ccccc3)c2)cnc1N [Example 655] = 5.00 to 6.00
CCCc1ccc(CNCc2cccc(-c3cnc(N)c(C(=O)NC)n3)c2)cc1 [Example 443] = 6.00 to 7.30
CC(C)(C)OC(=O)N1CCC(NC(=O)c2nc(-c3cccc(C(=O)NCc4ccccc4)c3)cnc2N)C1 (stereo not shown) [Example 567] = ≤ 5.00
CNC(=O)c1nc(-c2cccc(CNC3CCc4cc(CCCO)ccc43)c2)cnc1N (stereo not shown) [Example 527] = > 7.30
Nc1ncc(-c2cccc(C(=O)NCc3ccccc3)c2)nc1C(=O)NCCCNS(=O)(=O)c1ccccn1 [Example 654] = 5.00 to 6.00
CN(C)c1ccc(NC(=O)NCCNC(=O)c2nc(-c3cccc(C(=O)NCc4ccccc4)c3)cnc2N)cc1 [Example 691] = ≤ 5.00
Nc1ncc(-c2cccc(C(=O)N[C@H]3CCc4ccccc43)c2)nc1-c1nnc([C@H]2CCCNC2)[nH]1 [Example 755] = > 7.30
CNC(=O)c1nc(-c2ccc(F)c(C(=O)N[C@H]3CCc4ccccc43)c2)cnc1N [Example 772] = 6.00 to 7.30
CN/N=C(\C)c1nc(-c2cccc(C(=O)NCc3ccccc3)c2)cnc1N [Example 638] = ≤ 5.00
Nc1ncc(-c2cccc(CN[C@@H]3CCc4ccccc43)c2)nc1-c1nc(C2CCCNC2)n[nH]1 (stereo partly shown) [Example 683] = > 7.30

Enter reported pIC50 observed with Chk1 (Homo sapiens, UniProt O14757) for C/C(=N\Nc1ccc(C)cc1)c1nc(-c2cccc(C(=O)NCc3ccccc3)c2)cnc1N [Example 602]
≤ 5.00

Provide the documented pIC50 with Chk1 (Homo sapiens, UniProt O14757) as the system for CCN1CCCC(c2nnc(-c3nc(-c4cccc(CN[C@H]5CCc6ccccc65)c4)cnc3N)[nH]2)C1 (stereo partly shown) [Example 733]
6.00 to 7.30

Provide value of pIC50 for this record tested with Chk1 (Homo sapiens, UniProt O14757): Cc1nc(-c2nc(-c3cccc(C(=O)NCc4ccccc4)c3)cnc2N)nn1-c1ccccn1 [Example 702]
5.00 to 6.00

Record lookup: for Chk1 (Homo sapiens, UniProt O14757), what pIC50 belongs to Nc1ncc(-c2cccc(C(=O)N[C@H]3CCc4ccccc43)c2)nc1C(=O)N[C@@H]1CCCNC1 [Example 765] ?
> 7.30

Recorded pIC50 for C=Cc1ccc(CNCc2cccc(-c3cnc(N)c(C(=O)NC)n3)c2)c(F)c1 [Example 458] with Chk1 (Homo sapiens, UniProt O14757), please?
6.00 to 7.30

// fetch Chk1 (Homo sapiens, UniProt O14757) pIC50 for CNC(=O)c1nc(-c2cccc(CNCc3ccc(-c4cccs4)cc3F)c2)cnc1N [Example 450]
> 7.30

* * *

Listed molecules paired with reported IC50
system_tested: Chk1 (Homo sapiens)
Construct: purchased Upstate Biotechnology
Sequence (O14757 1-476): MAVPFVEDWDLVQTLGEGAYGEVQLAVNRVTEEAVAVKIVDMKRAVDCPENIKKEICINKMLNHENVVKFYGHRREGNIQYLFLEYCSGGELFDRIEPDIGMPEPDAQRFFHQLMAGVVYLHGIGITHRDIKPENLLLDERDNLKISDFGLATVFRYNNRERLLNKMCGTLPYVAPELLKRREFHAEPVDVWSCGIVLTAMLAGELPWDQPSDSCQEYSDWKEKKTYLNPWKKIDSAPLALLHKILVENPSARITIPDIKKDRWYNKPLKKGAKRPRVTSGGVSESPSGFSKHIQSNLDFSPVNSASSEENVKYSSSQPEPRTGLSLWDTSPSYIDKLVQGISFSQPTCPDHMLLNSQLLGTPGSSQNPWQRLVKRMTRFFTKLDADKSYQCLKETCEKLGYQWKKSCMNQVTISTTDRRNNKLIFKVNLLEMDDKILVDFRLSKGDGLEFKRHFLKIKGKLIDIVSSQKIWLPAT
assay_protocol: Chk1 kinase assay: incorporation of γ-33P ATP into immobilized myelin basic protein
Assay type: biochemical
condition_notes: Table 11; Chk1 only; read-out: Chk1 IC50

Nc1ncc(-c2cccc(C(=O)N[C@H]3CCc4ccccc43)c2)nc1-c1n[nH]c(CCOCc2ccccc2)n1 [Example 771] = 1 to 10 µM

Endpoint output: IC50 of Nc1ncc(-c2cccc(CN[C@H]3CCc4ccccc43)c2)nc1C(=O)N[C@H]1CCNC1 [Example 685] . Value?
< 0.05 µM

* * *

system_tested: Chk1 (Homo sapiens, UniProt O14757)
Construct: purchased Upstate Biotechnology
assay_protocol: Chk1 kinase assay: incorporation of γ-33P ATP into immobilized myelin basic protein
Type: biochemical
condition_notes: read-out: Chk1 IC50
pIC50: −log10 of the molar value.
Recorded pIC50 for the following compounds

CNC(=O)c1nc(-c2cccc(CNC(=O)c3ccc4c(c3)OCO4)c2)cnc1N = 6.00 to 7.30
CNC(=O)c1nc(-c2cccc(C(=O)NCc3ccco3)c2)cnc1N = 6.00 to 7.30
CNC(=O)c1nc(-c2cccc(C(=O)NC3c4ccccc4-c4ccccc43)c2)cnc1N = ≤ 5.00

# pIC50 lookup, item CNC(=O)c1nc(-c2cncc(C(=O)NCc3ccccc3-c3ccccc3)c2)cnc1N
6.00 to 7.30

Recorded pIC50 of CNC(=O)c1nc(-c2cccc(C(=O)NCc3ccc(F)cc3C(F)(F)F)c2)cnc1N , please.
6.00 to 7.30

Just for reference, patent US7704995B2 is where these values come from.
